Just for reference, paper PMC6759758 is where these values come from.

Biological target: SmMCM (Sinorhizobium meliloti MCM) (Rhizobium meliloti)
Construct: made in house; host or cells: E. coli BL21(DE3)pLysS
Sequence (O86028 2-712): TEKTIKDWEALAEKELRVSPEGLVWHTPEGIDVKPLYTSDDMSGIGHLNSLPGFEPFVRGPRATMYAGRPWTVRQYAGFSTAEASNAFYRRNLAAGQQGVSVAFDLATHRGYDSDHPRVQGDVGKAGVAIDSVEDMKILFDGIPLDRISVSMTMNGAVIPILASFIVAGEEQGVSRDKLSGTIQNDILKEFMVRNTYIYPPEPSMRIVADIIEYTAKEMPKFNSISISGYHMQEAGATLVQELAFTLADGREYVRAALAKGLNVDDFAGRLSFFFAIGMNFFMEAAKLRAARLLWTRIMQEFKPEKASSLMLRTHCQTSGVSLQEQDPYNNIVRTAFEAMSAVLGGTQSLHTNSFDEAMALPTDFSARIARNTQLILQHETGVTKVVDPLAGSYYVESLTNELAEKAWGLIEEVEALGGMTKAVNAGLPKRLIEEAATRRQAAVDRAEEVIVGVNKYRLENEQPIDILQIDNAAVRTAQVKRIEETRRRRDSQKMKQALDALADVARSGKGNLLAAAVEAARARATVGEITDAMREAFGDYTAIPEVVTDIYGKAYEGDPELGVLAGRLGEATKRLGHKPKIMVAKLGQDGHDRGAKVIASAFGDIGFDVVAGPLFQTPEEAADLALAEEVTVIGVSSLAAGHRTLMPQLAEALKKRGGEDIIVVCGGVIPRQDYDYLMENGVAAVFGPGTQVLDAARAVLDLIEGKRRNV
Test: Thiokinase-coupled spectrophotometric MCM activity assay
Assay type: biochemical
Conditions: SmMCM 50 nM reconstituted with 2 μM cobamide; (R)-methylmalonyl-CoA to succinyl-CoA, steady state, 30°C
quantity: kcat (s⁻¹)
Please state the figure in s⁻¹; there is no need to write the unit.

Task item: Please report the recorded kcat for C/C1=C2/[N-][C@H]([C@H](CC(N)=O)[C@@]2(C)CCC(=O)NC[C@@H](C)OP(=O)([O-])O[C@H]2[C@@H](O)[C@@H](n3cnc4cc(C)ccc43)O[C@@H]2CO)[C@]2(C)N=C(/C(C)=C3N=C(/C=C4N=C1[C@@H](CCC(N)=O)C\4(C)C)[C@@H](CCC(N)=O)[C@]\3(C)CC(N)=O)[C@@H](CCC(N)=O)[C@]2(C)CC(N)=O.[CH2-][C@H]1O[C@@H](n2cnc3c(N)ncnc32)[C@H](O)[C@@H]1O.[Co+3] [Ado[5-MeBza]Cba, 5-Methylbenzimidazolylcobamide] .
Reply: 12.8

Task item: Please report the recorded kcat for C/C1=C2/[N-][C@H]([C@H](CC(N)=O)[C@@]2(C)CCC(=O)NC[C@@H](C)OP(=O)([O-])O[C@H]2[C@@H](O)[C@@H](n3cnc4cc(C)c(C)cc43)O[C@@H]2CO)[C@]2(C)N=C(/C(C)=C3N=C(/C=C4N=C1[C@@H](CCC(N)=O)C\4(C)C)[C@@H](CCC(N)=O)[C@]\3(C)CC(N)=O)[C@@H](CCC(N)=O)[C@]2(C)CC(N)=O.[CH2-][C@H]1O[C@@H](n2cnc3c(N)ncnc32)[C@H](O)[C@@H]1O.[Co+3] [AdoCbl, adenosylcobalamin, reference compound] .
Reply: 26

Task item: Please report the recorded kcat for C/C1=C2/[N-][C@H]([C@H](CC(N)=O)[C@@]2(C)CCC(=O)NC[C@@H](C)OP(=O)([O-])O[C@H]2[C@@H](O)[C@@H](Oc3ccccc3)O[C@@H]2CO)[C@]2(C)N=C(/C(C)=C3N=C(/C=C4N=C1[C@@H](CCC(N)=O)C\4(C)C)[C@@H](CCC(N)=O)[C@]\3(C)CC(N)=O)[C@@H](CCC(N)=O)[C@]2(C)CC(N)=O.[CH2-][C@H]1O[C@@H](n2cnc3c(N)ncnc32)[C@H](O)[C@@H]1O.[Co+3] [Ado[Phe]Cba, Phenolylcobamide] .
Reply: 8.3

Task item: Please report the recorded kcat for C/C1=C2/[N-][C@H]([C@H](CC(N)=O)[C@@]2(C)CCC(=O)NC[C@@H](C)OP(=O)([O-])O[C@H]2[C@@H](O)[C@@H](Oc3ccc(C)cc3)O[C@@H]2CO)[C@]2(C)N=C(/C(C)=C3N=C(/C=C4N=C1[C@@H](CCC(N)=O)C\4(C)C)[C@@H](CCC(N)=O)[C@]\3(C)CC(N)=O)[C@@H](CCC(N)=O)[C@]2(C)CC(N)=O.[CH2-][C@H]1O[C@@H](n2cnc3c(N)ncnc32)[C@H](O)[C@@H]1O.[Co+3] [Ado[Cre]Cba, para-Cresolylcobamide] .
Reply: 15
